# studyTarget: Neuronal acetylcholine receptor subunit alpha-7 (Rattus norvegicus)
# Sequence (Q05941 whole entry): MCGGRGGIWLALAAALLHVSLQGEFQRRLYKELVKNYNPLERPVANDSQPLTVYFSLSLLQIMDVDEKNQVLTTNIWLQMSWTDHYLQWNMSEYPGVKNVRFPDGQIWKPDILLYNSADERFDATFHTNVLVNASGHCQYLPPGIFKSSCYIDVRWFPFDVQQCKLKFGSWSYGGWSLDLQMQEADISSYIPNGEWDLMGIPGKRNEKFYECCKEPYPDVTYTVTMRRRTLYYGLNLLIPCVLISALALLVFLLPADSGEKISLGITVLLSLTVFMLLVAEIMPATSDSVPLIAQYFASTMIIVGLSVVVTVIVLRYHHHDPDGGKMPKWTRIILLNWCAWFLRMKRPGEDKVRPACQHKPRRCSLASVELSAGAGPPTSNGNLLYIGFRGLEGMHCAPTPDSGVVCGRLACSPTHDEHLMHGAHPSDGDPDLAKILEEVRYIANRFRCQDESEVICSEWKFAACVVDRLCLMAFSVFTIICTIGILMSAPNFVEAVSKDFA
# assayText: Inhibition of biotinylated alpha-bungarotoxin binding to alpha7 nAChR in rat PC12 cells by FACS analysis
IC50 less than 60 nM is Criterion met; IC50 greater than or equal to 60 nM is Criterion not met.

| molecule | labelValue |
| --- | --- |
| O=C(Nc1ccc(Br)cc1F)N1CCNCC1COc1cccnc1 (racemic) | Criterion met |
| COc1ccc(OC(=O)N2CCNCC2COc2cccnc2)cc1 (racemic) | Criterion met |
| O=C(Nc1ccc(Cl)cc1)N1CCNCC1COc1cccnc1 (racemic) | Criterion not met |
| Fc1cccc2sc(N3CCNCC3COc3cccnc3)nc12 (racemic) | Criterion met |
| O=C(Nc1ccccc1)N1CCNCC1COc1cccnc1 (racemic) | Criterion not met |
| O=C(Nc1ccc(C(F)(F)F)cc1)N1CCNCC1COc1cccnc1 (racemic) | Criterion not met |
| c1cncc(OCC2CNCCN2c2nc3ncccc3o2)c1 (racemic) | Criterion met |
| Fc1cc(F)c2nc(N3CCNCC3COc3cccnc3)sc2c1 (racemic) | Criterion met |
| COc1ccc2oc(N3CCNCC3COc3cccnc3)nc2c1 (racemic) | Criterion not met |
| O=C(Oc1ccccc1)N1CCNCC1COc1cccnc1 (racemic) | Criterion met |
| O=C(COc1ccccc1)N1CCNCC1COc1cccnc1 (racemic) | Criterion not met |
| COc1ccc(NC(=O)N2CCNCC2COc2cccnc2)cc1Cl (racemic) | Criterion met |
| O=C(Cc1ccccc1)N1CCNCC1COc1cccnc1 (racemic) | Criterion not met |
| COc1cccc(NC(=O)N2CCNCC2COc2cccnc2)c1 (racemic) | Criterion not met |
| c1cncc(OCC2CNCCN2c2nc3ccccc3o2)c1 (racemic) | Criterion not met |
| FC(F)(F)c1ccc2nc(N3CCNCC3COc3cccnc3)sc2c1 (racemic) | Criterion not met |
| Cl.c1cncc(OC[C@H]2CNCCN2c2nc3ncccc3o2)c1 | Criterion met |
| COc1ccc2nc(N3CCNC[C@@H]3COc3cccnc3)sc2c1 | Criterion met |
| Clc1cnc2nc(N3CCNCC3COc3cccnc3)sc2c1 (racemic) | Criterion met |
| Brc1ccc2oc(N3CCNC[C@H]3COc3cccnc3)nc2c1 | Criterion not met |
| COc1ccc2sc(N3CCNCC3COc3cccnc3)nc2c1 (racemic) | Criterion not met |
| O=C(Oc1ccc(Cl)cc1)N1CCNCC1COc1cccnc1 (racemic) | Criterion met |
| O=C(Nc1ccc(Cl)c(Cl)c1)N1CCNCC1COc1cccnc1 (racemic) | Criterion met |
| Brc1ccc2oc(N3CCNCC3COc3cccnc3)nc2c1 (racemic) | Criterion not met |
| COc1ccc(NC(=O)N2CCNCC2COc2cccnc2)c(OC)c1 (racemic) | Criterion not met |
| CC(C)c1ccc(NC(=O)N2CCNCC2COc2cccnc2)cc1 (racemic) | Criterion not met |
| O=C(Nc1ccc(Br)cc1)N1CCNCC1COc1cccnc1 (racemic) | Criterion met |
| COc1ccccc1NC(=O)N1CCNCC1COc1cccnc1 (racemic) | Criterion not met |
| c1cncc(OCC2CNCCN2c2nc3ncccc3s2)c1 (racemic) | Criterion met |
| c1cncc(OCC2CNCCN2c2nc3ccccc3s2)c1 (racemic) | Criterion not met |
| O=C(Nc1ccc2c(c1)CCO2)N1CCNCC1COc1cccnc1 (racemic) | Criterion not met |
| COc1ccc(NC(=O)N2CCNC[C@@H]2COc2cccnc2)cc1.Cl | Criterion met |
| O=C(Nc1ccc(OC(F)(F)F)cc1)N1CCNCC1COc1cccnc1 (racemic) | Criterion not met |
| Cc1ccc(NC(=O)N2CCNCC2COc2cccnc2)cc1 (racemic) | Criterion not met |
| COc1ccc(NC(=O)N2CCNC[C@H]2COc2cccnc2)cc1 | Criterion not met |
| COc1ccc2nc(N3CCNC[C@H]3COc3cccnc3)sc2c1 | Criterion not met |
| COc1ccc2nc(N3CCNCC3COc3cccnc3)sc2c1 (racemic) | Criterion not met |
| FC(F)(F)Oc1ccc2nc(N3CCNCC3COc3cccnc3)sc2c1 (racemic) | Criterion not met |
| O=C(Nc1ccc(-c2ccccc2)cc1)N1CCNCC1COc1cccnc1 (racemic) | Criterion met |
| O=C(c1ccccc1)c1ccc(NC(=O)N2CCNCC2COc2cccnc2)cc1 (racemic) | Criterion met |
| Fc1ccc2nc(N3CCNCC3COc3cccnc3)sc2c1 (racemic) | Criterion not met |
| O=C(Nc1cccc(Cl)c1)N1CCNCC1COc1cccnc1 (racemic) | Criterion not met |

Values from ChEMBL document CHEMBL3259628
